Test system: LOK
Construct: gene STK10
Details: concentration: 1 μM, replicates: in singlicate; n = 1;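 note: KINOMEscan kinase panel screen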
Rule: measured %Inh below 20% gets Criterion met; anything equal to or greater than 20% gets Criterion not met.

Decide: %Inh of OCCOCCn1ccc2ncnc(Nc3ccc(Oc4cccc(Cl)c4)c(Cl)c3)c21 strictly below 20%?
Criterion not met

Find out if reported %Inh for CSc1nn2c(=O)cc(N3CCOCC3)nc2n1Cc1cccc(Cl)c1Cl [GSK2347225] is less than 20%
Criterion met

Does the reported %Inh of the following molecule sit strictly below 20%? COc1ccc(NC(=O)Nc2ccc(C)c(-c3ccc(C(=O)Nc4ccncc4)cc3)c2)cc1 [GSK1398475]
Criterion met

Regarding FC(F)(F)c1ccc(-c2cc(-c3c[nH]nc3-c3ccccn3)ccn2)cc1 [GW599550] , kindly confirm whether its %Inh is beneath 20%.
Criterion met

Determine if O=C(Nc1ccccc1F)NC1CCN(c2ccnc(Nc3ccc(F)cc3)n2)C1 (stereo not drawn) [GSK1379722] shows %Inh strictly lower than 20%.
Criterion met

Field: below-cutoff. Rule: recorded %Inh strictly less than 20%. Subject: CC(C)N1CCC(n2cnc(-c3ccc(F)cc3)c2-c2ccnc(N)n2)CC1 [SB-223132]
Criterion met

State whether 20% exceeds %Inh recorded for Cn1ccc2ncnc(Oc3ccc(NC(=O)Nc4cccnc4)c(Cl)c3)c21 .
Criterion not met

Determine whether this molecule shows %Inh lower than 20% (ties excluded): CCc1nc(-c2cccc(N(C)S(=O)(=O)c3ccccc3)c2)c(-c2ccnc(Nc3ccc(N4CCN(C(C)=O)CC4)nc3)n2)s1 [GSK1645895]
Criterion met

Identify whether the molecule O=C(CCO)NCCn1ccc2ncnc(Nc3ccc(Oc4cccc(C(F)(F)F)c4)c(Cl)c3)c21 records %Inh below 20%.
Criterion not met

Is %Inh strictly under 20% for the entry Cc1cccc(-c2nc(Nc3ccc4[nH]nnc4c3)c3ccccc3n2)n1 [GW867587] ?
Criterion met

Determine if CNc1nccc(-c2c(-c3ccc(F)cc3)ncn2CCCN2CCOCC2)n1 [SB-222516] shows %Inh strictly lower than 20%.
Criterion met

Hello, I'm reviewing records and need to know if %Inh of N#Cc1ccc(Oc2ccc(Nc3ncnc4cc[nH]c34)cc2Cl)cc1 is below 20%. Could you check?
Criterion met

Determine if Fc1cccc(COc2ccc(Nc3ncnc4sc(-c5ccc[nH]5)cc34)cc2Cl)c1 [GW707818] shows %Inh strictly lower than 20%.
Criterion not met

Determine whether this molecule shows %Inh lower than 20% (ties excluded): Oc1ccc2ncnc(Nc3ccc(OCc4ccccc4)cc3)c2c1 [GI262866]
Criterion met

Please let me know if FC(F)(F)c1ccc(-c2nn3ncccc3c2-c2ccnc(Nc3cccc(C(F)(F)F)c3)n2)cc1 [GW828205] shows %Inh below 20%.
Criterion met

Here's an entry: Clc1ccc(-c2cc(-c3c[nH]nc3-c3ccccn3)ccn2)cc1 [GW681251] . Is its %Inh below 20%?
Criterion not met

State whether 20% exceeds %Inh recorded for CC(C)(C)c1ccc(-n2cnc3c(N)ncnc32)cc1 [SKF-97263] .
Criterion met

Say whether its %Inh is strictly beneath 20%. Entry: CCn1c(-c2ccncc2)nc2cnccc21 [SB-735216]
Criterion met

* * *

Tested on: CLK2
Conditions: concentration: 1 μM, replicates: in singlicate; n = 1
Can you tell me %Inh for the items I'm about to list?
Kindly format the answer as number then unit.

Could you please provide reported %Inh for CN1CCC(n2cnc(-c3ccc(F)cc3)c2-c2ccnc(NC3CCNCC3)n2)CC1 ? Thanks!
0%

Give reported %Inh value for CN1c2ccc(-c3ccc(C(=O)NCCO)cc3)cc2-c2[nH]ncc2S1(=O)=O
86%

Answer with the recorded %Inh for the molecule listed here: COC(=O)c1c(-c2ccccc2)c2cc(Cl)ccc2c(=O)n1Cc1ccc(S(C)(=O)=O)cc1
0%

Write down %Inh measured for item O=C(c1ccc(-c2cc(-c3c[nH]nc3-c3ccccn3)ccn2)cc1)N1CCCC1
8%

Name the recorded %Inh of the molecule listed here: COc1ccc(NC(=O)Nc2ccc(C)c(-c3ccc(C(=O)Nc4ccncc4)cc3)c2)cc1
0%

Check the records and state %Inh for C[C@H]1CC[C@@H](C(=O)Nc2ccccc2)CN1c1cc(-c2ccc3c(N)n[nH]c3c2)nc(N)n1
0%

Return %Inh for the following molecule: Cl.c1ccc(Cn2ccc3cc(Nc4ncnc5ccccc45)ccc32)cc1
10%

Read the entry CCn1c(-c2ccncc2)nc2cnccc21 and write its reported %Inh.
0%

Answer with the recorded %Inh for the molecule listed here: CC(C)(C)OC(=O)NC1CCCN(c2cc(-c3ccc4c(N)n[nH]c4c3)nc(N)n2)C1 (centres unmarked)
27%

Output %Inh of CNc1nccc(-c2c(-c3ccc(F)cc3)ncn2CCCN2CCOCC2)n1
16%

Return reported %Inh. Input molecule: CCc1nc(-c2cccc(N(C)S(=O)(=O)c3ccccc3)c2)c(-c2ccnc(Nc3ccc(N4CCN(C(C)=O)CC4)nc3)n2)s1
12%

Note down %Inh recorded for COc1ccc(-c2oc3ncnc(N)c3c2-c2ccc(OC)cc2)cc1
0%

Could you please provide reported %Inh for Clc1ccc(-c2cc(-c3c[nH]nc3-c3ccccn3)ccn2)cc1 ? Thanks!
0%

Determine its reported %Inh: Nc1n[nH]c2nnc(-c3ccccc3)cc12
32%

* * *

Test system: DRAK1
Construct: gene STK17A
Conditions: concentration: 1 μM, replicates: in singlicate; n = 1
Kindly supply the reported %Inh values for the records listed here.
Report the value in % with no unit label.

Please indicate recorded %Inh of Cl.O=S(=O)(c1cccc(F)c1)c1ccc(Nc2ncnc3cc(Br)sc23)cc1Cl [GSK306886] measured with DRAK1.
9

# lookup: DRAK1 %Inh, key = COc1cc2c(Nc3cccc(NC(=O)c4ccccc4)c3)ncnc2cc1OCCCN1CCOCC1 [GSK223810]
11

Supply %Inh measured with DRAK1 for C[C@@H]1CCN(C(=O)CO)C[C@@H]1N(C)c1ncnc2[nH]ccc12 .
3

Please tell me the measured %Inh for CCc1nc(-c2cccc(C)c2)c(-c2ccnc(NC(=O)c3ccccc3)c2)s1 ; system: DRAK1.
0

Specify the recorded %Inh for FC(F)(F)c1ccc(-c2nn3ncccc3c2-c2ccnc(Nc3cccc(C(F)(F)F)c3)n2)cc1 [GW828205] , system: DRAK1.
0

Provide measured %Inh on DRAK1 for Nc1n[nH]c2nnc(-c3ccccc3)cc12 [SB-517389] please.
0

Please tell me the measured %Inh for O=C(NCCCN1CCCC1=O)c1cnc(NCc2cc(Cl)ccc2Cl)nc1NC1CCNCC1 ; system: DRAK1.
0

Enter measured %Inh, system DRAK1, for the compound shown: Oc1ccc2ncnc(Nc3ccc(OCc4ccccc4)cc3)c2c1 [GI262866]
0

Report its %Inh with DRAK1 as the test system: c1ccc(-c2ccc3c(-c4ccnc(Nc5ccc6c(c5)OCCO6)n4)cnn3n2)cc1 [GW818941]
15

Provide DRAK1 %Inh reading for COc1ccc(-c2nc3n(c2-c2ccncc2)CCC3)cc1 [SKF-104493] .
0

For DRAK1, give %Inh of the listed compound: Fc1ccc(-c2ncn(CCCNCc3ccccc3)c2-c2ccncc2)cc1
0

State %Inh on DRAK1. Entry: CCCc1ccc(S(=O)(=O)NC2CCN(c3ccnc(Nc4ccc(OC)cc4)n3)C2)cc1 (stereo not shown) [GSK1379737]
0

Look up DRAK1 data: %Inh of COc1ccc(Nc2nccc(N3CCC(NC(=O)Nc4ccc5c(c4)OCO5)C3)n2)cc1 (stereo not shown) [GSK1379745] , then report it.
0

Find %Inh for COc1cc2ncnc(Nc3ccc(OCc4ccccc4Br)c(Cl)c3)c2cc1OC.Cl [GI261590] on DRAK1 and write it down.
9

Given Cl.Fc1ccccc1COc1ccc(Nc2ncnc3ccc(-c4nnc(C(F)(F)F)o4)cc23)cc1Cl [GW424170] , report its %Inh on DRAK1.
4

Report value: %Inh, system: DRAK1, compound: O=c1cc(N2CCOCC2)nc2n(Cc3cccc(Cl)c3)ccn12 [GSK2296823]
0

Please look at Nc1nccc2scc(-c3ccc4c(c3)CCN4C(=O)Cc3cc(F)ccc3F)c12 [GSK2587663] and tell me its recorded %Inh on DRAK1.
3

State measured %Inh of the compound COc1ccc(Nc2nccc(N3CCC(NC(=O)c4cccc(NC(C)=O)c4)C3)n2)cc1 (stereo not shown) [GSK1379732] with DRAK1.
24

Name the value of %Inh reported for Clc1ccc(-c2cc(-c3c[nH]nc3-c3ccccn3)ccn2)cc1 [GW681251] when tested on DRAK1.
0

Determine reported %Inh for COc1ccc(NC(=O)c2ccc(-c3cc(-c4nnc(C)o4)ccc3C)cc2)cc1 [GW595885] ; test system: DRAK1.
0

Recall the reported %Inh of Cc1ccc(NC(=O)c2cccc(C#N)c2)cc1-c1ccc(C(=O)Nc2ccncc2)cc1 [GSK1398463] when tested on DRAK1.
0

Answer briefly: %Inh recorded on DRAK1 for Cc1cc(N2CCC(NS(=O)(=O)c3ccc(F)cc3)CC2)nc(Nc2cccc(C#N)c2)n1.O=C(O)C(F)(F)F [GSK1653537]
3

Cited source for all entries: paper PMC5540273
